# System: K4 kissing-loop RNA reporter;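 also: bound reporter read as fluorescence of individual clusters on recovered sequencing chips by microscopy, with normalized cluster intensities fitted with a binding model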
# ASSAY_REMARKS: apparent KD of K4 kissing-loop reporter; higher = weaker reporter binding
# MEASUREMENT_PARAMETERS: Eterna round: R107; input ligand: FMN 200 uM
EXPERIMENTAL_ENDPOINT: apparent KD of K4 kissing-loop reporter (nM)
Supply the numeric figure in nM, leaving out any unit text.

K4 kissing-loop RNA reporter apparent KD of K4 kissing-loop reporter of UUAUAACCCAGUGAUGUUGGGUAGCGGCCACGAGGACCGGUACGGCCGCCACUCGAGGUUUGACCAGUGAUGUUGGACUAUUUGG [Same state Tryptophan A GF 5] is 163

K4 kissing-loop RNA reporter apparent KD of K4 kissing-loop reporter of AUUAAUUUCAGAGGAUAUCGUAAUUUUAUUUAAUUUAUUCAUUUAUGCAGUGAUGUUGCUAAUAUUCGAGAAGGCUGAUUUAUAA [JR_ExcFMNB_Sub007] is 103

Record for CCAUUCUUUUACGAUACCAGUCUAAUAUAUUUAAUCAAAACCCUCGCCGAGUGAUGUUCGGACCCUUGGCAGCGUCUGCGAGAGG [ettyxtkmullin] under target or system K4 kissing-loop RNA reporter: apparent KD of K4 kissing-loop reporter reported as 606

// assay K4 kissing-loop RNA reporter, entry AAGCGUGUGGCGGCCGCCACUAGUCUCCAGUGAUGUUGGAGAGAUCACGUAAGUGAUCUCCGACAUAGGACCGGGCCAUAUGGAA [Same State - Tryptophan B (Freestyle 23)] , apparent KD of K4 kissing-loop reporter value = 69.1

Response field apparent KD of K4 kissing-loop reporter (K4 kissing-loop RNA reporter) for item ACCUACGAUCACAAUAGUGAUUGUAGGAACUAGGAUAUGCUGAAAAGCAGAAGGAGUGAUGUUCCGUCAUGAAUAACAUGACAAA [FmnAX 5 #OpenEnded #K4Late #CoaxialStacking] : 251
